- target-desc: T1, NHERF1_2, O14745
- T1 sequence (O14745 149-244, limits assumed, looked up): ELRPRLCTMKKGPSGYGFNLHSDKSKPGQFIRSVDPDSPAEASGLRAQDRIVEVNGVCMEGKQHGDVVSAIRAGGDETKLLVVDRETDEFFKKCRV
- method-description: holdup assay
- Parameters: key: below the threshold = too weak to quantify, mostly under pKd 3.1 to 4
- cond: plain residues with an end cap or a label only (N-terminal biotin on a linker: ttds)
measured-metric: pKd

SRPQRTQTQV [HPV67-E6, A4U7F2]: below the threshold
RSLEEEESQL [GRASP, Q7Z6J2]: below the threshold
PKTPPTDTSV [KIR3DL3, Q8N743]: below the threshold
SVWLRKETRV [CYSLTR2, Q9NS75]: below the threshold

Name the recorded pKd for QSARYRDTEL [TJP2, Q9UDY2] . below the threshold

Also need STLTIFETAL [ABCC4, O15439] , thanks. below the threshold

Also need SSRTRRETQL [HPV16-E6, P03126] , thanks. 3.89
